Molecular target: Gal(b1-4)Glc6S
Assay: glycan array binding signal (z-score within array); higher = stronger binding
Details: glycan notation: IUPAC condensed, linker removed
Only a selection was taken, and the strongest signals are over-represented in it overall.
REPORTED_METRIC: glycan array binding signal (z-score)
// print number alone

Inquiry: Fill in: glycan array binding signal (z-score) of AT1G73650(15) (Arabidopsis thaliana), F4HRY1 (protein) MGTVLDSHFLALTAIVTVIYQFIFFVITALFKFDQVTDFAGSTNFVILAVLTLVLKASWHFRQIVLTLLVVVWGLRLGIFLLMETRILQWGEDRRFDEQRGNIVRLIIFWTLQAVWVWTVSLPLTLVNASDGGGSLKPADVIGWTMETWVFGFLIEAAADQQKLSFKNSPENRGKWCDVGVWKYSRHPNYFGEMETLLWWGIFVAASPVLEGAEYLVIFGPLFLTLLLLFVSGIPLLEASADKKHGNSGAYRSYKKTTSPLILFPRGVYGNLPGWFKTVFLFEFPFYSRNLPQEGRLQNSKEKEVKDD is ___
Reply text: 2.95
